Sourced from patent US20260167731A1

target: T1, human CCR8 (human, UniProt P51685 1-355); test: flow cytometry, hCCR8 transfected CHOK1 cells
T1 construct: also called hCCR8; hCCR8_P51685
measurementKind: MFI fold change to isotype ctrl (fold)
Respond with the bare value in fold.

Request: May I ask what MFI fold change to isotype ctrl has been recorded for anti-CCR8 mAb 2-5 (antibody, V domains shown) VH: EVQLQQSGPELVKPGASVKISCKTSGYTFTEYTIHWVKQSHGKSLEWVGGINPDNGNTRYDQKFKGKATLTIDKSSSTAYMELRSLTSEDSAVYYCARVARSSGSGPYAMDYWGQGTSVTVSS VL: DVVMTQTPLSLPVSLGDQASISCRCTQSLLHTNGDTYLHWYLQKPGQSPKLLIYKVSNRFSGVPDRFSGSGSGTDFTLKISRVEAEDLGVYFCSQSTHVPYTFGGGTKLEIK ?
Response: 10.3

Request: # get_value(readout='MFI fold change to isotype ctrl', item= anti-CCR8 mAb 2-3 (antibody, V domains shown) VH: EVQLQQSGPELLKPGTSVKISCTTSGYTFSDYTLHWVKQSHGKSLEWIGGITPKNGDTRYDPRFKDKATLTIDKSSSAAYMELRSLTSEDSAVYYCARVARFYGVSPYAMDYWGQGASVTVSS VL: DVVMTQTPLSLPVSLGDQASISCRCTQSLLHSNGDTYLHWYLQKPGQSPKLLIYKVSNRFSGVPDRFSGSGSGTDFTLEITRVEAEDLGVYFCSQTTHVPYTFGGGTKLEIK )
Response: 10.7

Request: GET /values?readout=MFI fold change to isotype ctrl&item= anti-CCR8 mAb 2-4 (antibody, V domains shown) VH: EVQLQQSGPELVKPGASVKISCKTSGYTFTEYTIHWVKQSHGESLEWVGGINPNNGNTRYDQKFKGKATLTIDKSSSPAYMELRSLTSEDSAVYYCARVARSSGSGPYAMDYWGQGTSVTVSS VL: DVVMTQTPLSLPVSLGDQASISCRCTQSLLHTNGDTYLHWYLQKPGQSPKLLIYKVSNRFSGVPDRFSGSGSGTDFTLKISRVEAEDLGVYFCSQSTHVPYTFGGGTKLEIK
Response: 4.78
